Reported IC50 by item:
target_system: FGFR3 (Homo sapiens)
Construct: purchased Upstate
Sequence (P22607 23-806): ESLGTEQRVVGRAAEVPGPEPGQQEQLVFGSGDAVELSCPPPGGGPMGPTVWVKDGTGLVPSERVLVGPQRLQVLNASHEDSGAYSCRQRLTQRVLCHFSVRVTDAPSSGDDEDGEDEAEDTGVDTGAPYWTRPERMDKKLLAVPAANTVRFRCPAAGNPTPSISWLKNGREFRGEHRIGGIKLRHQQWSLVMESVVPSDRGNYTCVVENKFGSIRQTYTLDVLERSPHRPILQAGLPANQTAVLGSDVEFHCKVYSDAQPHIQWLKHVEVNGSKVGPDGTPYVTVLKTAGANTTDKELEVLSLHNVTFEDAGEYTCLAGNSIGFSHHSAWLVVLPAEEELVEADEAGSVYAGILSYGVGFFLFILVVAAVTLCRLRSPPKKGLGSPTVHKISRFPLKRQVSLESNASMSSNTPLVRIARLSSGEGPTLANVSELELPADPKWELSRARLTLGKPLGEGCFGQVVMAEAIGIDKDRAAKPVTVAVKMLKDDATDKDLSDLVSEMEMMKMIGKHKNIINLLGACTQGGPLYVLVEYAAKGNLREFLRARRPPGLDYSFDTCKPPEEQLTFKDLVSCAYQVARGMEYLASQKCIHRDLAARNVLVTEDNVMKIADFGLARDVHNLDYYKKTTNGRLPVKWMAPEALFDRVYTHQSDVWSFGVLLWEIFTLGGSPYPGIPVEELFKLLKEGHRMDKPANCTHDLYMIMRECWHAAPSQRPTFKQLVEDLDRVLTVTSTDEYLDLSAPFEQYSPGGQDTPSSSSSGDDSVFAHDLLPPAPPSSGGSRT
test_details: FGFR3 in vitro kinase inhibitory activity assay (TRF)
Format: biochemical
condition: 8 μM ATP, 3 hours; read-out: FGFR3 IC50(μM) or % I
Write the answer as a number in µM, unit excluded.

Here is how some compounds turned out for IC50.
CCC(=NOC)c1ccn2c(-c3cccc(NC(=O)NCC(F)(F)F)c3)cnc2c1    0.011
CN(CCON=Cc1ccn2c(-c3cccc(NC(=O)NCC(F)(F)F)c3)cnc2c1)CCS(C)(=O)=O    0.017
O=C(NCC(F)(F)F)Nc1cccc(-c2cnc3cc(C=NOCc4ccncc4)ccn23)c1    0.014

query: Entry under review: `COCCO/N=C(\C)c1ccn2c(-c3cccc(NC(=O)NCC(F)(F)F)c3)cnc2c1` . Reported IC50?
result: 0.0041

query: Now consider `COCCON=Cc1ccn2c(-c3cccc(NC(=O)NCC(F)(F)F)c3)cnc2c1` and answer again.
result: 0.0194

query: Now consider `CCC(=NO)c1ccn2c(-c3cccc(NC(=O)NCC(F)(F)F)c3)cnc2c1` and answer again.
result: 0.0045

query: Now consider `O=C(NCC(F)(F)F)Nc1cccc(-c2cnc3cc(C(CC4CC4)=NO)ccn23)c1` and answer again.
result: 0.019

query: Now consider `C/C(=N\OCCCO)c1ccn2c(-c3cccc(NC(=O)NCC(F)(F)F)c3)cnc2c1` and answer again.
result: 0.0023

query: Now consider `Cn1cncc1CO/N=C/c1ccn2c(-c3cccc(NC(=O)NCC(F)(F)F)c3)cnc2c1` and answer again.
result: 0.0071

query: Now consider `O=C(NCC(F)(F)F)Nc1cccc(-c2cnc3cc(C(=NO)C4CC4)ccn23)c1` and answer again.
result: 0.0097

query: Now consider `O=C(NCC(F)(F)F)Nc1cccc(-c2cnc3cc(C=NOCCCN4CCOCC4)ccn23)c1` and answer again.
result: 0.018

query: Now consider `CN(C)CCON=Cc1ccn2c(-c3cccc(NC(=O)NCC(F)(F)F)c3)cnc2c1` and answer again.
result: 0.029

query: Now consider `C/C(=N\OCCOCCO)c1ccn2c(-c3cccc(NC(=O)NCC(F)(F)F)c3)cnc2c1` and answer again.
result: 0.0031

query: Now consider `O=C(NCC(F)(F)F)Nc1cccc(-c2cnc3cc(C=NOCc4cccnc4)ccn23)c1` and answer again.
result: 0.0077

query: Now consider `O=C(NCC(F)(F)F)Nc1cccc(-c2cnc3cc(C=NOCCC4CCNCC4)ccn23)c1` and answer again.
result: 0.024

query: Now consider `CC(C)(C)c1nc(CON=Cc2ccn3c(-c4cccc(NC(=O)NCC(F)(F)F)c4)cnc3c2)no1` and answer again.
result: 0.027

query: Now consider `C/C(=N\OCCCN1CCOCC1)c1ccn2c(-c3cccc(NC(=O)NCC(F)(F)F)c3)cnc2c1` and answer again.
result: 0.0038

query: Now consider `O=C(NCC(F)(F)F)Nc1cccc(-c2cnc3cc(C=NOCCO)ccn23)c1` and answer again.
result: 0.021

====

target_system: Ba/F3-TEL-FGFR3 cells (Homo sapiens, UniProt P22607)
Construct: fused on or other part: P41212 (Transcription factor ETV6)
Sequence (P22607 whole entry, change not shown, the tested form may be a part): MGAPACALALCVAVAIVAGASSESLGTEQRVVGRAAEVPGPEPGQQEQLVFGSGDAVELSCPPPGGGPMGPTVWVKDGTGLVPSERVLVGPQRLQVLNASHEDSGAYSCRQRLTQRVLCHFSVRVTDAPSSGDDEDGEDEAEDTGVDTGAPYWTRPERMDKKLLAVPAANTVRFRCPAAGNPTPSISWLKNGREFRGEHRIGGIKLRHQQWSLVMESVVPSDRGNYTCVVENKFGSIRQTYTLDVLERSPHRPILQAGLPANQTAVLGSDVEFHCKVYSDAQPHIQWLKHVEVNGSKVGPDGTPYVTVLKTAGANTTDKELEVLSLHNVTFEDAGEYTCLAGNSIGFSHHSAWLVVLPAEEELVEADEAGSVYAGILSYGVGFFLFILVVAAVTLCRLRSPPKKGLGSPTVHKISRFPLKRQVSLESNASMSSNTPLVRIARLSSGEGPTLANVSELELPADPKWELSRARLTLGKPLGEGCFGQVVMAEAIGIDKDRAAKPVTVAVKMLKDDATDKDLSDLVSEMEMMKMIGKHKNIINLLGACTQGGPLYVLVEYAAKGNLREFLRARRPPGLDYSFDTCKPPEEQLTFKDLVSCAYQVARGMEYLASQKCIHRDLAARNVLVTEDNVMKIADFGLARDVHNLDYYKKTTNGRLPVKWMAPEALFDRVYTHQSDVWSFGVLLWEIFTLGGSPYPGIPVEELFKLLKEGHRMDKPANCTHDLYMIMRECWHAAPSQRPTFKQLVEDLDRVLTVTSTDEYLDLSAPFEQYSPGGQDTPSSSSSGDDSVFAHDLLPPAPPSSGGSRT
test_details: Ba/F3-TEL-FGFR3 cell proliferation assay (Alamar Blue)
Type: cell-based
condition: 72 hours; read-out: BaF3-TEL-FGFR3 prolif
# if measured GI50 < 300 nM: 1.0  # else: 0.0

Field: example entries. Status: answers known.
COCCN1CCC(CCON=Cc2ccn3c(-c4cccc(NC(=O)NCC(F)(F)F)c4)cnc3c2)CC1    0.0
CN(C)S(=O)(=O)N1CCN(CCCO/N=C/c2ccn3c(-c4cccc(NC(=O)NCC(F)(F)F)c4)cnc3c2)CC1    0.0
CN(CCO)CCON=Cc1ccn2c(-c3cccc(NC(=O)NCC(F)(F)F)c3)cnc2c1    0.0

query: I wonder whether `O=C(NCC(F)(F)F)Nc1cccc(-c2cnc3cc(C=NOCCO)ccn23)c1` has GI50 below 300 nM. Can you tell?
result: 0.0

query: Now consider `O=C(NCC(F)(F)F)Nc1cccc(-c2cnc3cc(C=NOCc4ccncc4)ccn23)c1` and answer again.
result: 1.0

query: Now consider `CN(CCON=Cc1ccn2c(-c3cccc(NC(=O)NCC(F)(F)F)c3)cnc2c1)CCS(C)(=O)=O` and answer again.
result: 0.0

====

target_system: Ba/F3-TEL-FGFR3 cells (Homo sapiens)
Construct: fused on or other part: P41212 (Transcription factor ETV6)
test_details: Ba/F3-TEL-FGFR3 cell proliferation assay (Alamar Blue)
Assay type: cell-based
condition: % at 10.0 μM, 72 hours
Reported BaF3-TEL-FGFR3 prolif (μM) by item:
Write the answer as a number in % at, unit excluded.

C/C(=N\OCCCO)c1ccn2c(-c3cccc(NC(=O)NCC(F)(F)F)c3)cnc2c1    0.000
O=C(NCC(F)(F)F)Nc1cccc(-c2cnc3cc(C(CC4CC4)=NO)ccn23)c1    43.0
CN1CCC(NCCCON=Cc2ccn3c(-c4cccc(NC(=O)NCC(F)(F)F)c4)cnc3c2)CC1    60.0

Here's the next entry for you.
query: Entry under review: `CON=C(CC1CC1)c1ccn2c(-c3cccc(NC(=O)NCC(F)(F)F)c3)cnc2c1` . Reported BaF3-TEL-FGFR3 prolif (μM)?
result: 28.0

====

Reported log10(IC50) by item:
target_system: FGFR3 (Homo sapiens)
Construct: purchased Upstate
test_details: FGFR3 in vitro kinase inhibitory activity assay (TRF)
Type: biochemical
condition: 8 μM ATP, 3 hours; read-out: FGFR3 IC50(μM) or % I
Hello, just confirming the data are log10 of IC50 with units of µM.

Here is how some compounds turned out for log10(IC50).
Cc1nc(CON=Cc2ccn3c(-c4cccc(NC(=O)NCC(F)(F)F)c4)cnc3c2)cs1 [Compound 1-9]    -1.85
O=C(NCC(F)(F)F)Nc1cccc(-c2cnc3cc(/C=N/OCCCO)ccn23)c1 [Compound 1-18]    -1.72

query: Entry under review: C/C(=N\O)c1ccn2c(-c3cccc(NC(=O)NCC(F)(F)F)c3)cnc2c1 [Compound 1-21] . Reported log10(IC50)?
result: -2.72

query: Now consider COCCN(CCON=Cc1ccn2c(-c3cccc(NC(=O)NCC(F)(F)F)c3)cnc2c1)Cc1ccccc1 [Compound 1-41] and answer again.
result: -1.26

query: Now consider O=C(NCC(F)(F)F)Nc1cccc(-c2cnc3cc(C=NOCCCN4CCCC4)ccn23)c1 [Compound 1-35] and answer again.
result: -1.64

query: Now consider CN(C)S(=O)(=O)N1CCN(CCCO/N=C/c2ccn3c(-c4cccc(NC(=O)NCC(F)(F)F)c4)cnc3c2)CC1 [Compound 1-63] and answer again.
result: -1.80

query: Now consider N#CCCN1CCN(CCCON=Cc2ccn3c(-c4cccc(NC(=O)NCC(F)(F)F)c4)cnc3c2)CC1 [Compound 1-60] and answer again.
result: -1.66

query: Now consider CON=C(CC1CC1)c1ccn2c(-c3cccc(NC(=O)NCC(F)(F)F)c3)cnc2c1 [Compound 1-29] and answer again.
result: -1.23

====

Test system: parental wild-type Ba/F3 cells
test_details: Ba/F3 (WT) cell proliferation assay (Alamar Blue)
Assay type: cell-based
condition: Mus musculus, BaF3; % at 3.00 μM, 72 hours; read-out: BaF3 WT prolif
Kind request: treat 40% as inclusive, so inhibition at 3 µM at 40% or higher is true (1), anything lower is false (0).

O=C(NCC(F)(F)F)Nc1cccc(-c2cnc3cc(C=NOCCCN4CCN(CCO)CC4)ccn23)c1 [Compound 1-39]    true (1)
O=C(NCC(F)(F)F)Nc1cccc(-c2cnc3cc(C=NOCc4cccnc4)ccn23)c1 [Compound 1-55]    true (1)
CN(C)S(=O)(=O)N1CCN(CCCO/N=C/c2ccn3c(-c4cccc(NC(=O)NCC(F)(F)F)c4)cnc3c2)CC1 [Compound 1-63]    true (1)
O=C(NCC(F)(F)F)Nc1cccc(-c2cnc3cc(C=NOCCCN4CCCC4)ccn23)c1 [Compound 1-35]    false (0)
CN(C)CCON=Cc1ccn2c(-c3cccc(NC(=O)NCC(F)(F)F)c3)cnc2c1 [Compound 1-57]    false (0)

query: Kindly determine if inhibition at 3 µM recorded for COC1CCN(CCCON=Cc2ccn3c(-c4cccc(NC(=O)NCC(F)(F)F)c4)cnc3c2)CC1 [Compound 1-36] is above or exactly 40%.
result: false (0)

query: Now consider CC(C)(C)c1nc(CON=Cc2ccn3c(-c4cccc(NC(=O)NCC(F)(F)F)c4)cnc3c2)no1 [Compound 1-14] and answer again.
result: true (1)

====

target_system: Ba/F3-TEL-FGFR3 cells (Homo sapiens, UniProt P22607)
Construct: fused on or other part: P41212 (Transcription factor ETV6)
test_details: Ba/F3-TEL-FGFR3 cell proliferation assay (Alamar Blue)
Assay type: cell-based
condition: 72 hours; read-out: BaF3-TEL-FGFR3 prolif
property_measured: GI50

Here is how some molecules turned out for GI50.
O=C(NCC(F)(F)F)Nc1cccc(-c2cnc3cc(C=NOCCCN4CCCC4)ccn23)c1 [Compound 1-35]    560 nM
CON=C(c1ccn2c(-c3cccc(NC(=O)NCC(F)(F)F)c3)cnc2c1)C1CCC1 [Compound 1-27]    1300 nM

Here's the next entry for you.
query: Entry under review: Cc1cc(CON=Cc2ccn3c(-c4cccc(NC(=O)NCC(F)(F)F)c4)cnc3c2)n(C)n1 [Compound 1-13] . Reported GI50?
result: 300 nM
